Origin of values: the supplement of paper PMC7877785

experiment: self-splicing fitness, log relative to wild type (ln ratio); higher = more splicing; Tetrahymena group I intron in knt gene, E. coli kanamycin selection, DiMSum; sequences stand for … in CUCUCU…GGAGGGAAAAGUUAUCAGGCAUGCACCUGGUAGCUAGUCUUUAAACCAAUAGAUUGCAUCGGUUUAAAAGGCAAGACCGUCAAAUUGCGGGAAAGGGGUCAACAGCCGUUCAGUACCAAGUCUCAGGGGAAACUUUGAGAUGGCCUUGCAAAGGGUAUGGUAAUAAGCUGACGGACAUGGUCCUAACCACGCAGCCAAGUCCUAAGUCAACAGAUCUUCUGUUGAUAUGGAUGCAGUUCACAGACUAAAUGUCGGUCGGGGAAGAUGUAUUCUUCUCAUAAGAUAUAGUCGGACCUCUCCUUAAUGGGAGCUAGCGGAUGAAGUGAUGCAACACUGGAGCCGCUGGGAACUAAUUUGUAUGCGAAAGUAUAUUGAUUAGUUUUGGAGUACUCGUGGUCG;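 note: selection with 25 µg/mL kanamycin versus none on LB agar overnight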
condition.info: 37 °C
We use -2 as the dividing line for self-splicing fitness (ln): on or above the line is 1, below is -1.

Q) Check the entry `CCUUAGCAAUAUUACGUGUU` : does self-splicing fitness (ln) equal or exceed -2?
A) -1

Q) Likewise for `GUGUAGCAAUAUUACGCGUC` ?
A) 1

Q) Likewise for `AAGAAGCAAUAUUACGCGAC` ?
A) 1

Q) Likewise for `AUCCAGCAAUAUUACGAGCG` ?
A) 1

Q) Likewise for `GAACAGCAAUAUUACGCUAG` ?
A) 1

Q) Likewise for `AGGUAGCAAUAUUACGAGGG` ?
A) -1

Q) Likewise for `GGCUAGCAAUAUUACGUUUA` ?
A) 1

Q) Likewise for `GUCGAGCAAUAUUACGUGUG` ?
A) 1

Q) Likewise for `UAUUAGCAAUAUUACGGCGA` ?
A) 1

Q) Likewise for `CGGUAGCAAUAUUACGUGGU` ?
A) -1

Q) Likewise for `CCCCAGCAAUAUUACGGUGG` ?
A) 1

Q) Likewise for `AAUUAGCAAUAUUACGUUGA` ?
A) 1

Q) Likewise for `UAGUAGCAAUAUUACGGUUG` ?
A) 1

Q) Likewise for `AUUCAGCAAUAUUACGCUUC` ?
A) 1

---

experiment: self-splicing fitness, log relative to wild type (ln ratio); higher = more splicing; Tetrahymena group I intron in knt gene, E. coli kanamycin selection, DiMSum; sequences stand for … in CUCUCU…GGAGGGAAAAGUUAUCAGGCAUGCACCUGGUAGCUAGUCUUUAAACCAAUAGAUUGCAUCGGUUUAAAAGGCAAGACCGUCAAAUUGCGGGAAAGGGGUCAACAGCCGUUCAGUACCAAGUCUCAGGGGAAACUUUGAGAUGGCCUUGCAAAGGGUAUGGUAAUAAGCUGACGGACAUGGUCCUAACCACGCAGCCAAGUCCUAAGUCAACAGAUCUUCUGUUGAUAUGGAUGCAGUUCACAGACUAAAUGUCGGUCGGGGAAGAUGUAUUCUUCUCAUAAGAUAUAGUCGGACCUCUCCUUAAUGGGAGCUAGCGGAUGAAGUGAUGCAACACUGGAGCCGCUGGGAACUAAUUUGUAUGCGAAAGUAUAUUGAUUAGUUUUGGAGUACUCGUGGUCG
condition.info: 37 °C
We use -2 as the dividing line for self-splicing fitness (ln): on or above the line is yes, below is no.

Q) Check the entry `CCUAAGCAAUAUUACGGUGA` : does self-splicing fitness (ln) equal or exceed -2?
A) no

Q) Likewise for `AUUGAGCAAUAUUACGGUGA` ?
A) yes

Q) Likewise for `UUUAAGCAAUAUUACGUACU` ?
A) yes

Q) Likewise for `ACUCAGCAAUAUUACGCACA` ?
A) yes

Q) Likewise for `GGCAAGCAAUAUUACGAGGA` ?
A) yes

Q) Likewise for `GUCCAGCAAUAUUACGCGCA` ?
A) yes

Q) Likewise for `UUGUAGCAAUAUUACGAUUC` ?
A) no

Q) Likewise for `UCUUAGCAAUAUUACGUACA` ?
A) yes

Q) Likewise for `CGUAAGCAAUAUUACGAUAC` ?
A) no

Q) Likewise for `UGGCAGCAAUAUUACGCAGC` ?
A) no

Q) Likewise for `CUGCAGCAAUAUUACGGCCA` ?
A) yes

Q) Likewise for `CUCGAGCAAUAUUACGAAUG` ?
A) yes

Q) Likewise for `CAACAGCAAUAUUACGAAUA` ?
A) yes

Q) Likewise for `UAGCAGCAAUAUUACGAACA` ?
A) yes

---

experiment: self-splicing fitness, log relative to wild type (ln ratio); higher = more splicing; Tetrahymena group I intron in knt gene, E. coli kanamycin selection, DiMSum; sequences stand for … in CUCUCU…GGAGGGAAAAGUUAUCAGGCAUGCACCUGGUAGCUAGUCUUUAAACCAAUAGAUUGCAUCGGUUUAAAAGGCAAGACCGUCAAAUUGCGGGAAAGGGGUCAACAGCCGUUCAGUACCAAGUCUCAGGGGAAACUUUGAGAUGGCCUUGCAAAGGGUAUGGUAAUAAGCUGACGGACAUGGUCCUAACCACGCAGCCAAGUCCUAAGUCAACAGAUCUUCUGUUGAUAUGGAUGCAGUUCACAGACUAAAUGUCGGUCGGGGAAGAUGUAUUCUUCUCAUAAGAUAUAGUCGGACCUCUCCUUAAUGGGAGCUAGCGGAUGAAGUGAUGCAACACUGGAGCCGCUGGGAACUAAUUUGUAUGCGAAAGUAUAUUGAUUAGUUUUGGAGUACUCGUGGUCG
condition.info: 30 °C
observable: self-splicing fitness (ln)
# print the numeric value only

Q) Item under review: `GGACAGCAAUAUUACGUCAU` . Reported self-splicing fitness (ln)?
A) -1.17

Q) Likewise for `AGAGAGCAAUAUUACGUUUC` ?
A) -2.27

Q) Likewise for `CAUCAGCAAUAUUACGCAAA` ?
A) -2.39

Q) Likewise for `UACGAGCAAUAUUACGGUCG` ?
A) -0.828

Q) Likewise for `UACAAGCAAUAUUACGAUCC` ?
A) -3.27

Q) Likewise for `CGGGAGCAAUAUUACGGACG` ?
A) -2

Q) Likewise for `UUCAAGCAAUAUUACGACAU` ?
A) -1.61

Q) Likewise for `UCGAAGCAAUAUUACGUCGA` ?
A) -3.65

Q) Likewise for `GCCCAGCAAUAUUACGUCAU` ?
A) -2.82

Q) Likewise for `AACCAGCAAUAUUACGGAGA` ?
A) -1.62

Q) Likewise for `GACCAGCAAUAUUACGCUCA` ?
A) -0.152

Q) Likewise for `UAGCAGCAAUAUUACGUCUA` ?
A) -0.114

Q) Likewise for `AAACAGCAAUAUUACGGCGG` ?
A) -2.4

Q) Likewise for `CUUCAGCAAUAUUACGUGAU` ?
A) -3.65

Q) Likewise for `CUCGAGCAAUAUUACGGGAC` ?
A) -3.8

Q) Likewise for `CGCAAGCAAUAUUACGUAUC` ?
A) -3.14

---

experiment: self-splicing fitness, log relative to wild type (ln ratio); higher = more splicing; Tetrahymena group I intron in knt gene, E. coli kanamycin selection, DiMSum; sequences stand for … in CUCUCU…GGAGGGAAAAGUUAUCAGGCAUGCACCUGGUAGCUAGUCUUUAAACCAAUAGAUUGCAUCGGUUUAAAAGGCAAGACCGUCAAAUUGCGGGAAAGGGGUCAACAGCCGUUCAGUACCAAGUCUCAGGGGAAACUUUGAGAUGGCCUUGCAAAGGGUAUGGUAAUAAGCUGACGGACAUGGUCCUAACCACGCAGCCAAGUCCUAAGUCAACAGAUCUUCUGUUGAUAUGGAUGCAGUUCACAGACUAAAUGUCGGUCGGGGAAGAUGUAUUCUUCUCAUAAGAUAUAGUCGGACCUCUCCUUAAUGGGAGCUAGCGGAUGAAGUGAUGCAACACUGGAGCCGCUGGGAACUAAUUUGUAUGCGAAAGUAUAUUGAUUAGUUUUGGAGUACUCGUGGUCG
condition.info: 30 °C
We use -1 as the dividing line for self-splicing fitness (ln): on or above the line is 1, below is 0.

Q) Check the entry `CAUCAGCAAUAUUACGUCAU` : does self-splicing fitness (ln) equal or exceed -1?
A) 0

Q) Likewise for `GUGAAGCAAUAUUACGUUCU` ?
A) 1

Q) Likewise for `AGAAAGCAAUAUUACGUCCC` ?
A) 1

Q) Likewise for `CCAGAGCAAUAUUACGGAGG` ?
A) 0

Q) Likewise for `AGGUAGCAAUAUUACGAACG` ?
A) 1

Q) Likewise for `GUAAAGCAAUAUUACGGACC` ?
A) 0

Q) Likewise for `CGCCAGCAAUAUUACGCACG` ?
A) 0

Q) Likewise for `AAGCAGCAAUAUUACGGUAC` ?
A) 0
